Cited source for all entries: patent US20240294543A1

# system-under-test: human GABAA α1β3γ2 receptor (Homo sapiens (Human), UniProt P14867+P18507)
# assay-notes: Radioligand binding assay, competition for [3H]Flumazenil, γ2-containing GABAA subtypes
# assay-setup: Log[Ki α1β3γ2 (nM)/Ki α2β2γ1 (nM)], Table 1
value-kind: LogSel
The response must contain the number and no unit.

Worked set:
>>> obs_value("C[C@@H]1N=C(c2c(F)cccc2F)c2c(sc3c2COCCO3)-n2c(C3CC3)nnc21")
2.36
>>> obs_value("Cc1nnc2n1-c1sc3c(c1C(c1c(F)cccc1F)=N[C@H]2C)CCCC(O)C3 (mixture of isomers)")
1.90
>>> obs_value("C[C@@H]1N=C(c2c(F)cccc2F)c2c(sc3c2COCCO3)-n2nc(C(=O)NC3CC3)nc21")
1.86

Now, please, on to the next compound.
Using the record for C[C@@H]1N=C(c2c(F)cccc2F)c2c(sc3c2COCCC3)-n2nc(C(=O)NCC3(O)CC3)nc21 , report its LogSel. 2.30
